Tested on: PPARg:RXRa 30nM:10nM, anti-RXR (NR concentration 30 nM, RXRa partner concentration 10 nM)
Test: PBM binding z-score (relative to random genomic background probes); higher = stronger binding; sequences stand for … in GC…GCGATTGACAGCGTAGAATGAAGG
Listing of entries alongside the reported PBM binding z-score.
Lab note: record just the number, no unit beside it.

Worked examples follow.
Sequence text: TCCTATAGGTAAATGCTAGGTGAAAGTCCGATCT
PBM binding z-score: 2.99
--
Sequence text: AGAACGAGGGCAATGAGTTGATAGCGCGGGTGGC
PBM binding z-score: -0.31
--
Sequence text: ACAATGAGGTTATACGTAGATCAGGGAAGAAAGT
PBM binding z-score: 0.688
--
Sequence text: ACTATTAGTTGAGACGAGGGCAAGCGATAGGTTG
PBM binding z-score: 0.381
--
Sequence text: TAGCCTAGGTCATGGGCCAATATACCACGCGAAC
PBM binding z-score: 1.34

Exercise: Name the reported PBM binding z-score value associated with the sequence `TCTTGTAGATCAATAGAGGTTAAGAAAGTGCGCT`
Solution: 2.83

Exercise: Similarly, `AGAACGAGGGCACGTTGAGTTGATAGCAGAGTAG` ?
Solution: 0.235

###

Tested on: PPARg:RXRa DBDmut IVT, anti-RXR (DBD mutation: RXRa K156A/R161A, NR concentration 270 nM, RXRa partner concentration 90 nM)
Experiment: PBM binding z-score (relative to random genomic background probes); higher = stronger binding; sequences stand for … in GC…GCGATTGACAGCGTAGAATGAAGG
Classification field: 1 = PBM binding z-score at or over 2; 0 = PBM binding z-score under 2.

Past entries and their recorded results:
Sequence text: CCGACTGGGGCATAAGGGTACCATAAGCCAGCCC
Classification: 0
//
Sequence text: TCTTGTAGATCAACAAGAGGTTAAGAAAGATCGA
Classification: 0
//
Sequence text: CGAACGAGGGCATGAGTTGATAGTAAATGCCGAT
Classification: 1
//
Sequence text: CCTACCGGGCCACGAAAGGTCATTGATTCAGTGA
Classification: 0
//
Sequence text: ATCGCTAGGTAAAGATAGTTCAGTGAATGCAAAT
Classification: 0

Exercise: Hi, just wondering whether `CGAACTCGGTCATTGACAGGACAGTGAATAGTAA` shows PBM binding z-score of 2 or higher.
Solution: 1

###

Test system: RXRa homodimer (NR concentration 180 nM)
Assay: PBM binding z-score (relative to random genomic background probes); higher = stronger binding; sequences stand for … in GC…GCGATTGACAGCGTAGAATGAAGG
Listing of entries alongside the reported PBM binding z-score.
Lab note: record just the number, no unit beside it.

Worked examples follow.
Sequence text: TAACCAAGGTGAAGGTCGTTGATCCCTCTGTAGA
PBM binding z-score: 1.87
--
Sequence text: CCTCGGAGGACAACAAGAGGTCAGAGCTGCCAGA
PBM binding z-score: 2.93
--
Sequence text: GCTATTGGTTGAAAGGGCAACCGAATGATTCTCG
PBM binding z-score: 1.32
--
Sequence text: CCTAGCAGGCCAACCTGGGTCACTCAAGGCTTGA
PBM binding z-score: 1.23

Exercise: Name the reported PBM binding z-score value associated with the sequence `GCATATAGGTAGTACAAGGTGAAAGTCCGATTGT`
Solution: 0.53

Exercise: Similarly, `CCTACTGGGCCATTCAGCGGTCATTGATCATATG` ?
Solution: -0.0428

Exercise: Similarly, `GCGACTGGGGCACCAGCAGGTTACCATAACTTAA` ?
Solution: 0.401

Exercise: Similarly, `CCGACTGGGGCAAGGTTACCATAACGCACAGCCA` ?
Solution: 1.34

Exercise: Similarly, `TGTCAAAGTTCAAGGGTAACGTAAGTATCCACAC` ?
Solution: 5.45

Exercise: Similarly, `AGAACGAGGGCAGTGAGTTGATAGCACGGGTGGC` ?
Solution: 0.269

Exercise: Similarly, `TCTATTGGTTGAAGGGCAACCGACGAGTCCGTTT` ?
Solution: 0.744

Exercise: Similarly, `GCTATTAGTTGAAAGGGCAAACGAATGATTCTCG` ?
Solution: 1.38

###

Test system: LXRa homodimer (NR concentration 270 nM)
Assay: PBM binding z-score (relative to random genomic background probes); higher = stronger binding; sequences stand for … in GC…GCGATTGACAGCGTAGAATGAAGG
Readout type: PBM binding z-score
Lab note: record just the number, no unit beside it.

Worked examples follow.
Sequence text: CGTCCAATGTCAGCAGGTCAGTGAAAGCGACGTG
System tested: LXRa homodimer (NR concentration 270 nM)
Readout type: PBM binding z-score
Numeric readout: -0.0257
//
Sequence text: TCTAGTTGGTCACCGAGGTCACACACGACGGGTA
System tested: LXRa homodimer (NR concentration 270 nM)
Readout type: PBM binding z-score
Numeric readout: 2.2
//
Sequence text: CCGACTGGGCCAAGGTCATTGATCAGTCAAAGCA
System tested: LXRa homodimer (NR concentration 270 nM)
Readout type: PBM binding z-score
Numeric readout: 0.884
//
Sequence text: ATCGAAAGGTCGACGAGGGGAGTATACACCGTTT
System tested: LXRa homodimer (NR concentration 270 nM)
Readout type: PBM binding z-score
Numeric readout: 0.159

Exercise: Name the reported PBM binding z-score value associated with the sequence `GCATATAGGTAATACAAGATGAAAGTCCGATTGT`
Solution: -0.106

Exercise: Similarly, `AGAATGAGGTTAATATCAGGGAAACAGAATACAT` ?
Solution: 0.149

Exercise: Similarly, `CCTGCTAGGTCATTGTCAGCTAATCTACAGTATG` ?
Solution: 0.878

Exercise: Similarly, `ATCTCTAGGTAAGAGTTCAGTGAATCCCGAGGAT` ?
Solution: 0.982

Exercise: Similarly, `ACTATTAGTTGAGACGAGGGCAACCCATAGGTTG` ?
Solution: -0.102

Exercise: Similarly, `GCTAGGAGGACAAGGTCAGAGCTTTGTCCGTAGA` ?
Solution: -0.572

Exercise: Similarly, `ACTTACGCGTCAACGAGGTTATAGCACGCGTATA` ?
Solution: -0.0981

Exercise: Similarly, `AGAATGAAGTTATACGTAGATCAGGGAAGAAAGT` ?
Solution: -0.439

###

System: THRa homodimer (NR concentration 90 nM)
Assay: PBM binding z-score (relative to random genomic background probes); higher = stronger binding; sequences stand for … in GC…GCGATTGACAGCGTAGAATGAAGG
Listing of entries alongside the reported PBM binding z-score.

Exercise: Name the reported PBM binding z-score value associated with the sequence `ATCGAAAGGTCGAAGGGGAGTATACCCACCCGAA`
Solution: -0.345

###

Tested on: PPARg DBDmut IVT, anti-PPARg (DBD mutation: PPARg1 K132A/R137A, NR concentration 270 nM)
Assay: PBM binding z-score (relative to random genomic background probes); higher = stronger binding; sequences stand for … in GC…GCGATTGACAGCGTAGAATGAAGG
Classification field: True = PBM binding z-score at or over 0.3; False = PBM binding z-score under 0.3.

Past entries and their recorded results:
Sequence text: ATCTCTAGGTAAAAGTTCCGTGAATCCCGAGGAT
Classification: True
//
Sequence text: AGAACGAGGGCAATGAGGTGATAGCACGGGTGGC
Classification: True
//
Sequence text: CCTCACGGGTCACTGACAGGTTATAGCATTTGGA
Classification: False
//
Sequence text: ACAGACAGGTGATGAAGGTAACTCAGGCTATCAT
Classification: False

Exercise: Hi, just wondering whether `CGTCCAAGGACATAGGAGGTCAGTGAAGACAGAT` shows PBM binding z-score of 0.3 or higher.
Solution: False

Exercise: Similarly, `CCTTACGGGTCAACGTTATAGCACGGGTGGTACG` ?
Solution: False

Exercise: Similarly, `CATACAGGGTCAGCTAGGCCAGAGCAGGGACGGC` ?
Solution: True

Exercise: Similarly, `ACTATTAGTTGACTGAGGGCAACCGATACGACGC` ?
Solution: True

Exercise: Similarly, `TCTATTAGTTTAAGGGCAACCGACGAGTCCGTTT` ?
Solution: True

###

Tested on: LXRb:RXRa (NR concentration 270 nM, RXRa partner concentration 90 nM)
Assay: PBM binding z-score (relative to random genomic background probes); higher = stronger binding; sequences stand for … in GC…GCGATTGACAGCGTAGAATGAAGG
Classification field: Y = PBM binding z-score at or over 2; N = PBM binding z-score under 2.

Sequence text: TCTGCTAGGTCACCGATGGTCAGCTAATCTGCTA
Classification: Y
//
Sequence text: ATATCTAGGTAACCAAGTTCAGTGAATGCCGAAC
Classification: N
//
Sequence text: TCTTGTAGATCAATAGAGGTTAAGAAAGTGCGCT
Classification: N
//
Sequence text: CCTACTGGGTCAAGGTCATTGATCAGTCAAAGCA
Classification: Y
//
Sequence text: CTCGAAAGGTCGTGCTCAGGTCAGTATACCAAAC
Classification: Y
//
Sequence text: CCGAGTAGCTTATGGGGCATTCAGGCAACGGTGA
Classification: N
//
Sequence text: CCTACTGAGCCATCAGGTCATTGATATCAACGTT
Classification: Y
//
Sequence text: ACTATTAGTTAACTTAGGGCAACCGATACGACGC
Classification: N
//
Sequence text: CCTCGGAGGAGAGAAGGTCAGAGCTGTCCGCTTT
Classification: N
//
Sequence text: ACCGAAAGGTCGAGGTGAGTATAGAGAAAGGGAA
Classification: Y

Exercise: Hi, just wondering whether `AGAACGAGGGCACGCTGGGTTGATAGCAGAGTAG` shows PBM binding z-score of 2 or higher.
Solution: N

Exercise: Similarly, `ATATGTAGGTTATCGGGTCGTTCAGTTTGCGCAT` ?
Solution: N

Exercise: Similarly, `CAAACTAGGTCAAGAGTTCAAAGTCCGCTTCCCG` ?
Solution: Y

Exercise: Similarly, `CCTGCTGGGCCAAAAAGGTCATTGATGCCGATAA` ?
Solution: Y

Exercise: Similarly, `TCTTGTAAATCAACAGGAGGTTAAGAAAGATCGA` ?
Solution: N

Exercise: Similarly, `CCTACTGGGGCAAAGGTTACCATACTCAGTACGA` ?
Solution: Y

Exercise: Similarly, `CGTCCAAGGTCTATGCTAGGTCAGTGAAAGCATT` ?
Solution: Y

Exercise: Similarly, `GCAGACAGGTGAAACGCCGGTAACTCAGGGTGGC` ?
Solution: N

Exercise: Similarly, `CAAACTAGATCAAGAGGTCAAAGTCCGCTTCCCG` ?
Solution: Y

Exercise: Similarly, `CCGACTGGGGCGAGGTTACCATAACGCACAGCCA` ?
Solution: N

Exercise: Similarly, `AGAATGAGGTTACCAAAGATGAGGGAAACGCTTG` ?
Solution: N

Exercise: Similarly, `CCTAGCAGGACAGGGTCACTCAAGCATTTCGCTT` ?
Solution: Y

Exercise: Similarly, `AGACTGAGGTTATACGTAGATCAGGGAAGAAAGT` ?
Solution: N

Exercise: Similarly, `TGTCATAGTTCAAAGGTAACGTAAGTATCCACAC` ?
Solution: Y

Exercise: Similarly, `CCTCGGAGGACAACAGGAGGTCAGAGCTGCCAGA` ?
Solution: N

Exercise: Similarly, `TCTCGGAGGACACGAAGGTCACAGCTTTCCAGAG` ?
Solution: Y
